biological target: human Y5 receptor (Homo sapiens, UniProt Q15761); construct: expressed in transfected cells; host or cells: mouse fibroblast LM(tk-) cells, e.g. L-hY5-7 (ATCC CRL-11995); assay: Radioligand binding to membranes, cloned human Y5 receptor; conditions: Table 5; read-out: Ki, nM hNPY-5
Ki reference
Please state the number and follow it with the unit.

Cc1noc(C)c1S(=O)(=O)N[C@H]1CC[C@H](CNc2nc(-c3ccccn3)cs2)CC1 3.8 nM
CN(C)S(=O)(=O)NC[C@H]1CC[C@H](Nc2nc(-c3nccs3)cs2)CC1 17.5 nM
Cc1nc(-c2csc(NCCCCCNS(=O)(=O)N(C)C)n2)c(C)s1 8.1 nM
Cc1nc(-c2cnc(NC[C@H]3CC[C@H](CNS(=O)(=O)N(C)C)CC3)s2)c(C)s1 3.1 nM
O=S(=O)(Cc1ccccc1)NCCCCCNc1nc(-c2ccccn2)cs1 45 nM

Requested field: Ki. Item: COc1ccc(C)cc1S(=O)(=O)NCCCCCNc1nc(-c2nc(C)sc2C)cs1
3.6 nM

Entry under review: O=S(=O)(NCCCCCNc1nc(-c2ccccn2)cs1)c1ccc(F)c(F)c1 . Reported Ki?
42 nM

Which measured Ki value corresponds to CN(C)S(=O)(=O)NCCCCCNc1nc(-c2ccsc2)cs1 ?
8.3 nM

Need Ki of Cc1nc(-c2csc(NC[C@H]3CC[C@H](N(C=O)C(C)C)CC3)n2)c(C)s1 , thanks.
72 nM

---

Target: human Y5 receptor (Homo sapiens, UniProt Q15761)
Construct: expressed in transfected cells; host or cells: mouse fibroblast LM(tk-) cells, e.g. L-hY5-7 (ATCC CRL-11995)
Sequence (Q15761 1-445): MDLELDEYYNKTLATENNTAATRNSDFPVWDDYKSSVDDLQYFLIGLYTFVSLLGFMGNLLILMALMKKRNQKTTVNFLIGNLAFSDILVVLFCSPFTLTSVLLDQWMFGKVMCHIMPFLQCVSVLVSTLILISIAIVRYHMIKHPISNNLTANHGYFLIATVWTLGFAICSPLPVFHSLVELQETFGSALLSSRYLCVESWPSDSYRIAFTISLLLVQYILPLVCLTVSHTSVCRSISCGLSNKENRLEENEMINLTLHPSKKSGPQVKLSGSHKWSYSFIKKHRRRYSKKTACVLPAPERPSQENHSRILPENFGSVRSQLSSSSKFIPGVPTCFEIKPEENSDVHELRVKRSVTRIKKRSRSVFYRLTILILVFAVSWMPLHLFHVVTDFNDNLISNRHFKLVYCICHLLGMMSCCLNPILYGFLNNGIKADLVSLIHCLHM
Experiment: Radioligand binding to membranes, cloned human Y5 receptor
Details: Table 2; read-out: Ki (nM) hNPY-5
# maps each entry to its Ki
Your reply should be a number followed by the unit it is expressed in.

Check out these entries, answers already filled in.
MOLECULE	SYSTEM TESTED	ENDPOINT VALUE
CCNc1nc(NCC)nc(NCC2CCC(CNS(C)(=O)=O)CC2)n1 (stereo not drawn) [Example 42]	human Y5 receptor (Homo sapiens, UniProt Q15761)	3070 nM
CCNc1nc(NCC)nc(NCC2CCC(CNS(=O)(=O)c3cn(C)cn3)CC2)n1 (stereo not drawn) [Example 38]	human Y5 receptor (Homo sapiens, UniProt Q15761)	313 nM
CCNc1nc(NCC)nc(NCC2CCC(CNS(=O)(=O)c3cc(C)ccc3OC)CC2)n1 (stereo not drawn) [Example 31]	human Y5 receptor (Homo sapiens, UniProt Q15761)	25 nM

// lookup Ki for CCNc1nc(NCC)nc(NCC2CCC(CNS(=O)(=O)c3cccc4cccnc34)CC2)n1 (stereo not drawn) [Example 41]
13 nM

Could you tell me which Ki is on file for CCNc1nc(NCC)nc(NCC2CCC(CNS(=O)(=O)c3ccccc3F)CC2)n1 (stereo not drawn) [Example 32] ?
35 nM

For the molecule CCNc1nc(NCC)nc(NCC2CCC(CNS(=O)(=O)c3ccc(F)cc3)CC2)n1 (stereo not drawn) [Example 30] , what Ki is on record?
40 nM

---

target: human Y5 receptor (Homo sapiens); construct: expressed in transfected cells; host or cells: mouse fibroblast LM(tk-) cells, e.g. L-hY5-7 (ATCC CRL-11995); assay: Radioligand binding to membranes, cloned human Y5 receptor; conditions: Table 6; read-out: Ki, nM hNPY-5
Rule: measured Ki below 30 nM gets yes (1); anything equal to or greater than 30 nM gets no (0).

O=S(=O)(NCCCCCNc1nc2c(s1)CCSc1ccc(F)cc1-2)c1ccccc1F yes (1)

Please look at the following compound next.
# check: Ki < 30 nM for O=S(=O)(NCCCCCNc1nc2c(s1)CCSc1ccccc1-2)c1ccc(F)cc1F
yes (1)

---

# maps each entry to its melting point
Structures can show the parent of a compound that is named as a salt.

Recorded results for 5 molecules are shown here.
MOLECULE	melting point
O=S(=O)(NCCCCCNc1nc(-c2ccncc2)cs1)c1ccccc1F (as salt: chloride) [Example 73]	97 to 98 °C
Cc1noc(C)c1S(=O)(=O)N[C@H]1CC[C@H](CNc2nc(-c3ccccn3)cs2)CC1 (as salt: chloride) [Example 85]	98 to 101 °C
O=S(=O)(NCCCCCNc1nc(-c2ccccn2)cs1)c1ccccc1F (as salt: chloride) [Example 61]	60 to 63 °C
O=S(=O)(NCCCCCNc1nc(-c2ccccn2)cs1)c1ccc(F)c(F)c1 (as salt: chloride) [Example 64]	65 to 68 °C
O=S(=O)(NCCCCCNc1nc(-c2cccnc2)cs1)c1ccccc1F (as salt: chloride) [Example 70]	84 to 85 °C

Tell me the measured melting point of Cc1noc(C)c1S(=O)(=O)NCCCCCNc1nc(-c2cccnc2)cs1 (as salt: chloride) [Example 71] , please.
114 to 115 °C

Return reported melting point; argument: NS(=O)(=O)NCCCCCNc1nc(-c2ccccn2)cs1 (as salt: chloride) [Example 69]
68 to 70 °C

---

molecular target: human Y5 receptor (Homo sapiens, UniProt Q15761); construct: expressed in transfected cells; host or cells: mouse fibroblast LM(tk-) cells, e.g. L-hY5-7 (ATCC CRL-11995); assay: Radioligand binding to membranes, cloned human Y5 receptor; details: Table 6; read-out: Ki, nM hNPY-5
OBSERVED PROPERTY: Ki (nM)
The figure you give is taken to be in nM; do not add the unit.

For the molecule CCS(=O)(=O)NC[C@H]1CC[C@H](Nc2nc3c(s2)CCSc2ccccc2-3)CC1 , what Ki is on record?
5.1

Ki for COCCN(C=O)[C@H]1CC[C@H](CNc2nc3c(s2)CCSc2ccccc2-3)CC1 ?
12.3

Item O=S(=O)(NCCCCCCNc1nc2c(s1)CCSc1ccccc1-2)c1cccc(C(F)(F)F)c1 has what recorded Ki?
22.4

---

log10(Ki) listing for selected molecules.
Biological target: human Y5 receptor (Homo sapiens, UniProt Q15761)
Construct: expressed in transfected cells; host or cells: mouse fibroblast LM(tk-) cells, e.g. L-hY5-7 (ATCC CRL-11995)
Sequence (Q15761 1-445): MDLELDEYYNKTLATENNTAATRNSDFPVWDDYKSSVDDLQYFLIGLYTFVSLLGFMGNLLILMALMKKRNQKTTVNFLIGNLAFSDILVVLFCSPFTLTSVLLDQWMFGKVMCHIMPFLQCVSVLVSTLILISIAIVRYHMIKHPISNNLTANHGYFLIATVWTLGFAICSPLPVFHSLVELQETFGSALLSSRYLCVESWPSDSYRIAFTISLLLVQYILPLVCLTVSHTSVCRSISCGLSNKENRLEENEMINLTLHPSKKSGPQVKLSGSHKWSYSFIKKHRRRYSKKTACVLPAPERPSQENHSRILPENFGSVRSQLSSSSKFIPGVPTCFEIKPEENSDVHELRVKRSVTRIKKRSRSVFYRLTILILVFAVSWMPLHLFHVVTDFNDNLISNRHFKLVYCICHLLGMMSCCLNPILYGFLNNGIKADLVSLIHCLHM
Assay: Radioligand binding to membranes, cloned human Y5 receptor
Details: Table 5; read-out: Ki, nM hNPY-5
Note: values are log10 of Ki expressed in nM.

O=S(=O)(NCCCCCNc1nc(-c2ccncc2)cs1)c1ccccc1F 2.31
COc1ccc(C)cc1S(=O)(=O)NCCCCCNc1nc(-c2nccs2)cs1 1.14
Cc1nc(-c2csc(N[C@H]3CC[C@H](CNS(=O)(=O)c4ccc(F)cc4)CC3)n2)c(C)s1 0.82
COc1ccc(C)cc1S(=O)(=O)N[C@H]1CC[C@H](CNc2nc(-c3ccccn3)cs2)CC1 0.60

Field: next molecule
Reported log10(Ki), molecule CN(C)S(=O)(=O)NCCCCCNc1nc(-c2cccs2)cs1 : ____
1.09

---

biological target: human Y5 receptor (Homo sapiens); construct: expressed in transfected cells; host or cells: mouse fibroblast LM(tk-) cells, e.g. L-hY5-7 (ATCC CRL-11995); assay: Radioligand binding to membranes, cloned human Y5 receptor; settings: Table 1; read-out: Ki (nM) hNPY-5
# strict inequality: Ki < 80 nM yields y, everything else yields n

COMPOUND	CATEGORY
CC(C)Nc1nc(NCC2CCC(CNS(=O)(=O)c3cccc4ccccc34)CC2)nc(N2CCOCC2)n1 (stereo not drawn) [Example 24]	y

Consider the compound COc1ccc(CCNc2nc(NCC3CCC(CNS(=O)(=O)c4cccc5ccccc45)CC3)nc(NC(C)C)n2)cc1 (stereo not drawn) [Example 16] . Is its Ki strictly less than 80 nM?
n

Strictly below 80 nM in Ki? CC(C)Nc1nc(NCC2CCC(CNS(=O)(=O)c3cccc4ccccc34)CC2)nc(N2CCCCC2)n1 (stereo not drawn) [Example 22]
y
